Test system: Escherichia coli ATCC 25922
test protocol: Antimicrobial activity, serial microdilutions, Ec
Format: cell-based
Design: key: – means non-active
value type: Minimum bactericidal and fungicidal concentrations (MBC, MFC)

# compound, value measured
rows = [
    ("CCCCCCCC[N+](CC)(CC)CC [compound 7, Triethyloctylammonium iodide, reference compound]", "–"),
    ("CCCCCC[P+](c1ccccc1)(c1ccccc1)N(CC)CC", "–"),
    ("CCCCCCCC[P+](N(CC)CC)(N(CC)CC)N(CC)CC", "–"),
    ("CCN(CC)[P+](CCCCCC[P+](N(CC)CC)(N(CC)CC)N(CC)CC)(N(CC)CC)N(CC)CC", "–"),
    ("CCCCCCCC[P+](c1ccccc1)(c1ccccc1)c1ccccc1 [compound 8, Octyltriphenylphosphonium iodide, reference compound]", "–"),
    ("CCCCCCCC[P+](c1ccccc1)(c1ccccc1)N(CC)CC", "–"),
]

**Q:** Which Minimum bactericidal and fungicidal concentrations (MBC, MFC) is reported for this compound? CCCCCC[P+](N(CC)CC)(N(CC)CC)N(CC)CC
**A:** –
